These entries and their values trace back to patent US20140357579A1.

We begin with a simple list: items and their reported hKOR Efficacy(%).
- MEASURED_ON: human kappa opioid receptor (hKOR) (Homo sapiens, UniProt P41145)
- Construct: expressed in transfected cells; host or cells: HEK-293 cells (ATCC), transient transfection with pcDNA3-hOPRK1
- Sequence (P41145 whole entry): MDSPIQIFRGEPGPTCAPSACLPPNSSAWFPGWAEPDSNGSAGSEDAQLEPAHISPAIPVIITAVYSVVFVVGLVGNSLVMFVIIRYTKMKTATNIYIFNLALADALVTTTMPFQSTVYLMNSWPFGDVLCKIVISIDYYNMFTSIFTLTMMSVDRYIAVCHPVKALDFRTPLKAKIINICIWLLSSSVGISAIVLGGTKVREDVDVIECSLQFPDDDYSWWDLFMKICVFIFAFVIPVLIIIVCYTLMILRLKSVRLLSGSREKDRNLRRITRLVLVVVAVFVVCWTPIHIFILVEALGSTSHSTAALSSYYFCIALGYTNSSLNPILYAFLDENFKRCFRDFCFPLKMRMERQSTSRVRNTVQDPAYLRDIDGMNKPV
- PROCEDURE_DETAILS: NFAT-luciferase reporter assay in HEK-293 cells transfected with human kappa opioid receptor and chimeric G-protein
- Type: cell-based
- PROTOCOL_CONDITIONS: percent maximal activation compared to full induction by known kappa agonists

{"COMPOUND": "CC(C)C[C@@H](NC(=O)[C@@H](Cc1ccccc1)NC(=O)[C@H](N)Cc1ccccc1)C(=O)N[C@H](CCCN)C(=O)N1CCCN(C2=NCCN2)CC1 [Compound 17]", "hKOR Efficacy(%)": "90%"}
{"COMPOUND": "CC(C)C[C@@H](NC(=O)[C@@H](Cc1ccccc1)NC(=O)[C@H](N)Cc1ccccc1)C(=O)N[C@H](CCCCN)C(=O)N1CCN(c2nccs2)CC1 [Compound 29]", "hKOR Efficacy(%)": "92%"}
{"COMPOUND": "CC(C)C[C@@H](NC(=O)[C@@H](Cc1ccccc1)NC(=O)[C@H](N)Cc1ccccc1)C(=O)N[C@H](CCCN)C(=O)N1CCC(N)(C(=O)O)CC1 [Compound 6]", "hKOR Efficacy(%)": "107%"}
{"COMPOUND": "CC(C)C[C@@H](NC(=O)[C@@H](Cc1ccccc1)NC(=O)[C@H](N)Cc1ccccc1)C(=O)N[C@H](CCCCN)C(=O)N1CCN(C(=O)c2ccccc2)CC1 [Compound 33]", "hKOR Efficacy(%)": "94%"}
{"COMPOUND": "CC(C)C[C@@H](NC(=O)[C@@H](Cc1ccccc1)NC(=O)[C@H](N)Cc1ccccc1)C(=O)N[C@H](CCCCN)C(=O)NCc1ccc2[nH]c(=O)[nH]c2c1 [Compound 37]", "hKOR Efficacy(%)": "99%"}

====

We begin with a simple list: items and their reported Emax.
- MEASURED_ON: mouse kappa opioid receptor (mKOR) (Mus musculus, UniProt P33534)
- Construct: a mouse thymoma cell line that expresses only the kappa-opioid receptor and no other opioid receptor subtype; host or cells: R1.G1 mouse thymoma cells
- Sequence (P33534 whole entry): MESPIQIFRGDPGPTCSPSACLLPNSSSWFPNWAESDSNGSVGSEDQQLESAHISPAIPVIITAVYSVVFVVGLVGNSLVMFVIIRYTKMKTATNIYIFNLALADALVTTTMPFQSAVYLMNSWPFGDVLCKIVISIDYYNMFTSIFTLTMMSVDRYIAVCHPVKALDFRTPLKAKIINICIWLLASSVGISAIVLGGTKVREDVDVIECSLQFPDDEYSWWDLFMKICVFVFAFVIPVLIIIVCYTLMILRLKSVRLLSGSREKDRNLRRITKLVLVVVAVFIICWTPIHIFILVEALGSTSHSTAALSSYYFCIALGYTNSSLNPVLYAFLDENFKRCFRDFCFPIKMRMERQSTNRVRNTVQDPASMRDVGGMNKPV
- PROCEDURE_DETAILS: Inhibition of forskolin-stimulated cAMP production in R1.G1 cells (TR-FRET cAMP immunoassay)
- Assay type: cell-based
- PROTOCOL_CONDITIONS: R1.G1 cells; read-out: mKOR Efficacy(%)

{"SMILES_STRUCTURE": "CC(C)C[C@@H](NC(=O)[C@@H](Cc1ccccc1)NC(=O)[C@H](N)Cc1ccccc1)C(=O)N[C@H](CCCN)C(=O)N1CCCN(C(=N)N)CC1", "Emax / %": 99}
{"SMILES_STRUCTURE": "CC(C)C[C@@H](NC(=O)[C@@H](Cc1ccccc1)NC(=O)[C@H](N)Cc1ccccc1)C(=O)N[C@H](CCCN)C(=O)NCCCC[C@@H](NC(=O)[C@H](N)CCCN)C(=O)O", "Emax / %": 96}
{"SMILES_STRUCTURE": "CC(C)C[C@@H](NC(=O)[C@@H](Cc1ccccc1)NC(=O)[C@H](N)Cc1ccccc1)C(=O)N[C@H](CCCN)C(=O)NCCCC[C@H](NC(=O)[C@H](N)CCCN)C(=O)N1CCNCC1", "Emax / %": 91}
{"SMILES_STRUCTURE": "Cc1cnc(CNC(=O)[C@@H](CCCCN)NC(=O)[C@@H](CC(C)C)NC(=O)[C@@H](Cc2ccccc2)NC(=O)[C@H](N)Cc2ccccc2)cn1", "Emax / %": 87}
{"SMILES_STRUCTURE": "CC(C)C[C@@H](NC(=O)[C@@H](Cc1ccccc1)NC(=O)[C@H](N)Cc1ccccc1)C(=O)N[C@H](CCCN)C(=O)NCCCC[C@H](NC(=O)[C@H](N)CCCN)C(=O)O", "Emax / %": 97}
{"SMILES_STRUCTURE": "CC(C)C[C@@H](N)C(=O)N[C@H](CCCN)C(=O)N[C@H](CCCCNC(=O)[C@@H](CCCN)NC(=O)[C@@H](CC(C)C)NC(=O)[C@@H](Cc1ccccc1)NC(=O)[C@H](N)Cc1ccccc1)C(=O)O", "Emax / %": 95}
{"SMILES_STRUCTURE": "CC(C)C[C@@H](N)C(=O)N[C@H](CCCN)C(=O)N[C@@H](CCCCNC(=O)[C@@H](CCCN)NC(=O)[C@@H](CC(C)C)NC(=O)[C@@H](Cc1ccccc1)NC(=O)[C@H](N)Cc1ccccc1)C(=O)O", "Emax / %": 35}

====

- MEASURED_ON: human kappa opioid receptor (hKOR) (Homo sapiens)
- Construct: expressed in transfected cells; host or cells: HEK-293 cells (ATCC), transient transfection with pcDNA3-hOPRK1
- PROCEDURE_DETAILS: NFAT-luciferase reporter assay in HEK-293 cells transfected with human kappa opioid receptor and chimeric G-protein
- Type: cell-based
- PROTOCOL_CONDITIONS: transfected HEK-293 cells, luciferase reporter; read-out: hKOR EC50
We begin with a simple list: items and their reported EC50.

{"COMPOUND": "CC(C)C[C@@H](NC(=O)[C@@H](Cc1ccccc1)NC(=O)[C@H](N)Cc1ccccc1)C(=O)N[C@H](CCCN)C(=O)NCCCC[C@H](NC(=O)[C@H](N)CCCN)C(=O)O [Compound 42]", "EC50 [nM]": 0.27}
{"COMPOUND": "CC(C)C[C@@H](NC(=O)[C@@H](Cc1ccccc1)NC(=O)[C@H](N)Cc1ccccc1)C(=O)N[C@H](CCCN)C(=O)N1CCNC(C(=O)O)C1 (stereo partly drawn) [Compound 8]", "EC50 [nM]": 0.16}
{"COMPOUND": "CC(C)C[C@@H](NC(=O)[C@@H](Cc1ccccc1)NC(=O)[C@H](N)Cc1ccccc1)C(=O)N[C@H](CCCN)C(=O)NCCN1CCN(CC(=O)O)CC1 [Compound 1]", "EC50 [nM]": 0.49}

====

- MEASURED_ON: mouse kappa opioid receptor (mKOR) (Mus musculus)
- Construct: a mouse thymoma cell line that expresses only the kappa-opioid receptor and no other opioid receptor subtype; host or cells: R1.G1 mouse thymoma cells
- PROCEDURE_DETAILS: Inhibition of forskolin-stimulated cAMP production in R1.G1 cells (TR-FRET cAMP immunoassay)
- Assay type: cell-based
- PROTOCOL_CONDITIONS: mKOR EC50 (nM), R1.G1 cells, inhibition of forskolin-stimulated cAMP
Square brackets hold non-standard residues; d marks the D form. Side chains are listed from the residue outwards. Peptide text beside a SMILES is read from it. dOrn = NCCC[C@@H](N)C(=O)O
We begin with a simple list: items and their reported EC50.

{"MOLECULE": "CC(C)C[C@@H](NC(=O)[C@@H](Cc1ccccc1)NC(=O)[C@H](N)Cc1ccccc1)C(=O)N[C@H](CCCN)C(=O)NCCCC[C@H](NC(=O)[C@@H](CCCN)NC(=O)[C@@H](CC(C)C)NC(=O)[C@@H](Cc1ccccc1)NC(=O)[C@H](N)Cc1ccccc1)C(N)=O [Compound 43] (H-[dF][dF][dL][dOrn]K([dOrn-dL-dF-dF])-NH2)", "RESULT_UNITS": "nM", "EC50": 0.08}
{"MOLECULE": "CC(C)C[C@@H](NC(=O)[C@@H](Cc1ccccc1)NC(=O)[C@H](N)Cc1ccccc1)C(=O)N[C@H](CCCN)C(=O)NCCCC[C@@H](NC(=O)[C@@H](CCCN)NC(=O)[C@@H](CC(C)C)NC(=O)[C@@H](Cc1ccccc1)NC(=O)[C@H](N)Cc1ccccc1)C(=O)O [Compound 48] (H-[dF][dF][dL][dOrn][dK]([dOrn-dL-dF-dF])-OH)", "RESULT_UNITS": "nM", "EC50": 0.34}

====

- MEASURED_ON: mouse kappa opioid receptor (mKOR) (Mus musculus, UniProt P33534)
- Construct: a mouse thymoma cell line that expresses only the kappa-opioid receptor and no other opioid receptor subtype; host or cells: R1.G1 mouse thymoma cells
- PROCEDURE_DETAILS: Inhibition of forskolin-stimulated cAMP production in R1.G1 cells (TR-FRET cAMP immunoassay)
- Assay type: cell-based
- PROTOCOL_CONDITIONS: mKOR EC50 (nM), R1.G1 cells, inhibition of forskolin-stimulated cAMP
Square brackets hold non-standard residues; d marks the D form. Side chains are listed from the residue outwards. Peptide text beside a SMILES is read from it. dAgb = N=C(N)NCC[C@@H](N)C(=O)O; dAgp = N=C(N)NC[C@@H](N)C(=O)O; Api = NC1(C(=O)O)CCNCC1

{"COMPOUND": "CC(C)C[C@@H](NC(=O)[C@@H](Cc1ccccc1)NC(=O)[C@H](N)Cc1ccccc1)C(=O)N[C@H](CCNC(=N)N)C(=O)NC1(C(=O)O)CCN(C(=O)[C@@H](CCNC(=N)N)NC(=O)[C@@H](CC(C)C)NC(=O)[C@@H](Cc2ccccc2)NC(=O)[C@H](N)Cc2ccccc2)CC1 [Compound 51] (H-[dF][dF][dL][dAgb][Api]([dAgb-dL-dF-dF])-OH)", "MEASURED_ON": "mouse kappa opioid receptor (mKOR) (Mus musculus, UniProt P33534)", "EC50 / nM": 95.8}
{"COMPOUND": "CC(C)C[C@@H](NC(=O)[C@@H](Cc1ccccc1)NC(=O)[C@H](N)Cc1ccccc1)C(=O)N[C@H](CNC(=N)N)C(=O)NC1(C(=O)O)CCN(C(=O)[C@@H](CNC(=N)N)NC(=O)[C@@H](CC(C)C)NC(=O)[C@@H](Cc2ccccc2)NC(=O)[C@H](N)Cc2ccccc2)CC1 [Compound 50] (H-[dF][dF][dL][dAgp][Api]([dAgp-dL-dF-dF])-OH)", "MEASURED_ON": "mouse kappa opioid receptor (mKOR) (Mus musculus, UniProt P33534)", "EC50 / nM": 56.7}
{"COMPOUND": "CC(C)C[C@@H](NC(=O)[C@H](N)Cc1ccccc1)C(=O)N[C@H](CCCN)C(=O)N[C@H](CCCCNC(=O)[C@@H](CCCN)NC(=O)[C@@H](CC(C)C)NC(=O)[C@@H](Cc1ccccc1)NC(=O)[C@H](N)Cc1ccccc1)C(=O)O", "MEASURED_ON": "mouse kappa opioid receptor (mKOR) (Mus musculus, UniProt P33534)", "EC50 / nM": 0.05}
